# Test system: carrageenin plantar oedema
# PROTOCOL_DESCRIPTION: Antiinflammatory activity, inhibition of the carrageenin plantar oedema in the rat
# Type: in vivo, male Sprague-Dawley rats
# CONDITION_LABEL: intravenously, dose 5 mg/Kg, paw volume 3 hours after carrageenin
Overview of recorded % Inhibition (3 hours) for various molecules
The answer should read as a number with its unit following.

Answered examples (3):
CC(C(=O)O)c1cccc(C(=O)c2ccccc2)c1 (centres unmarked) [Ketoprofen, ketoprofen, reference compound]
37%
COc1ccc2c(c1)c(CC(=O)O)c(C)n2C(=O)c1ccc(Cl)cc1 [Indomethacin, indomethacin, reference compound]
37%
CCCCCCCCCCCC(=O)NC(CCCCCC)COP(=O)(O)CCCC (centres unmarked) [Compound 39, 2-Dodecanoylaminooctyl butylphosphonate]
17%

The molecule CCCCCCCCCCS(=O)(=O)NC(CCCCCC)COP(=O)(O)CCCCc1ccccc1 (centres unmarked) [Compound 38] showed % Inhibition (3 hours) equal to 23%

The molecule CCCCCCC(COP(=O)(O)OCCOCc1ccccc1)NS(=O)(=O)CCCc1ccccc1 (centres unmarked) [Compound 32] showed % Inhibition (3 hours) equal to 35%
